subject of test: h5-HT transporter (Homo sapiens, UniProt P31645)
Construct: Human platelet membranes (Oceanix Biosciences Corporation, Hanover, Md., USA) were thawed; tissue Oceanix Biosciences Corporation; host or cells: human platelet membranes
Sequence (P31645 whole entry): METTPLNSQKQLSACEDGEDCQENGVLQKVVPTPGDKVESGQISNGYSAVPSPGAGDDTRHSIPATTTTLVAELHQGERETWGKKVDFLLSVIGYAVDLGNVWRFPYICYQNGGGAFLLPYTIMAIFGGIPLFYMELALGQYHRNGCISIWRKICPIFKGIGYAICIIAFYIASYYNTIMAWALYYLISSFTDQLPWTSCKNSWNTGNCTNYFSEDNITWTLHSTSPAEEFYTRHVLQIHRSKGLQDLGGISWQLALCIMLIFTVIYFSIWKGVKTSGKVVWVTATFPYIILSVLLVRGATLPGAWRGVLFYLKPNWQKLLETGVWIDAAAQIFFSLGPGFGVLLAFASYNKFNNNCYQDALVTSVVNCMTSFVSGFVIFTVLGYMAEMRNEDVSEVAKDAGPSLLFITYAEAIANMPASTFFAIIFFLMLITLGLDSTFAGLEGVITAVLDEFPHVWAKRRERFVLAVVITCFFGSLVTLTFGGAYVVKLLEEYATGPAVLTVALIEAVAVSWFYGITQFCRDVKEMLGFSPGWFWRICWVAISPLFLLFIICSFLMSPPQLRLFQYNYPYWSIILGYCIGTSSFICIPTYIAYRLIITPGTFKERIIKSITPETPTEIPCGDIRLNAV
experiment description: Radioligand binding experiment for 5-HT transporter ([3H]paroxetine)
condition: human platelet membranes; [3H]paroxetine 0.5 nM; read-out: 5-HTT (converted)

compound	units text	IC50
CC(=Cc1ccccc1)CN1CCN(CC2ON=C3c4cccc(OCCO)c4OCC32)CC1 (stereo not drawn)	nM	50.1
COCC(=O)OCCOc1cccc2c1OCC1C2=NOC1CN1CCN(CC(C)=Cc2ccccc2)CC1 (single isomer, unassigned) [Compound 24]	nM	31.6
COc1cc2c(c(Nc3ccncc3)c1OC)OC[C@@H]1C2=NO[C@H]1CN1CCN(C/C(C)=C/c2ccc(F)cc2)CC1 (relative stereo)	nM	398
CC(=Cc1ccccc1)CN1CCN(CC2ON=C3c4cccc(NCc5ccccc5)c4OCC32)CC1 (stereo not drawn)	nM	126
CCNC(=O)OCCOc1cccc2c1OCC1C2=NOC1CN1CCN(CC(C)=Cc2ccccc2)CC1 (stereo not drawn)	nM	39.8
COC(=O)c1c(OC)c(OC)cc2c1OCC1C2=NOC1CN1CCN(C/C(C)=C/c2ccccc2)CC1 (single isomer, unassigned)	nM	158
CCOC(=O)c1c(OC)c(OC)cc2c1OC[C@@H]1C2=NO[C@H]1CN1CCN(C/C(C)=C/c2ccccc2)CC1 (single isomer, unassigned)	nM	63.1
CC(=O)Nc1cccc2c1OCC1C2=NOC1CN1CCN(CC(C)=Cc2ccccc2)CC1 (stereo not drawn)	nM	25.1
COCC(=O)OCCOc1cccc2c1OCC1C2=NOC1CN1CCN(CC(C)=Cc2ccccc2)CC1 (single isomer, unassigned) [Compound 25]	nM	316
COCC(=O)OCCOc1cccc2c1OCC1C2=NOC1CN1CCN(CC(C)=Cc2ccccc2)CC1 (stereo not drawn) [Compound 12]	nM	126
COc1cc2c(c(N3CCN(C)CC3)c1OC)OC[C@@H]1C2=NO[C@H]1CN1CCN(C/C(C)=C/c2ccccc2)CC1 (single isomer, unassigned)	nM	39.8
CC(=Cc1ccccc1)CN1CCN(CC2ON=C3c4cccc(NCCN5CCCC5)c4OCC32)CC1 (stereo not drawn)	nM	25.1
COc1cc2c(c(Br)c1OC)OCC1C2=NOC1CN1CCN(C/C(C)=C/c2ccccc2)CC1 (stereo not drawn)	nM	12.6
COc1cccc2c1C1=NOC(CN3CCN(CC(C)=Cc4ccccc4)CC3)C1CO2 (stereo not drawn)	nM	251
COc1cc2c(c(C)c1OC)OC[C@@H]1C2=NO[C@H]1CN1CCN(C/C(C)=C/c2ccccc2)CC1 (single isomer, unassigned)	nM	31.6
